Data origin, for the record: patent US20110231103A1

- Tgt: β2-AR (Homo sapiens)
- Construct: All of these receptors were endogenously expressed in A431 cells, as confirmed by quantitative RT-PCR; endogenous in cells; host or cells: quiescent (serum-starved) A431 cells
- Sequence (P07550 whole entry): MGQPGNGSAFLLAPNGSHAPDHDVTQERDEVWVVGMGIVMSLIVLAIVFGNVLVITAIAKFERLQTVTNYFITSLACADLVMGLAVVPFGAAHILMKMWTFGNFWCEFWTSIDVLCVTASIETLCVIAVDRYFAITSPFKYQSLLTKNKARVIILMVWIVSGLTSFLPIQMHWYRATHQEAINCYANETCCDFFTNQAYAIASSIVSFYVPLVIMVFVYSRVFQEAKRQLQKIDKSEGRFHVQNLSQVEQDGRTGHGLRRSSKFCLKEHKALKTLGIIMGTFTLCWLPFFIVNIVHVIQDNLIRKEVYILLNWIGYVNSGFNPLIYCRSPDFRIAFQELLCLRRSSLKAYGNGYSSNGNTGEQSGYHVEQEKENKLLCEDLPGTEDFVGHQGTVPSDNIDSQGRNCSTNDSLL
- Experiment notes: DMR assays of a panel of β2-AR ligands in quiescent A431 cells, multi-parameter and cluster analysis
- Format: cell-based
- Test conditions: FIG. 7
Endpoint name: saturating concentration for the DMR signal (µM)
// units = µM; emit number, no label

[
  {
    "Molecule": "NCCc1ccc(O)c(O)c1 [dopamine]",
    "Unit label": "µM",
    "Experimental value": 32
  },
  {
    "Molecule": "CNC[C@H](O)c1ccc(O)c(O)c1 [epinephrine]",
    "Unit label": "µM",
    "Experimental value": 0.008
  },
  {
    "Molecule": "Oc1ccccc1O [catechol]",
    "Unit label": "µM",
    "Experimental value": 500
  }
]

Pending molecule:
Qu. For the molecule NC[C@H](O)c1ccc(O)c(O)c1 [norepinephrine] , report saturating concentration for the DMR signal.
Ans. 0.1

====

- Tgt: β2-AR (Homo sapiens)
- Construct: All of these receptors were endogenously expressed in A431 cells, as confirmed by quantitative RT-PCR; endogenous in cells; host or cells: quiescent (serum-starved) A431 cells
- Experiment notes: DMR assays of a panel of β2-AR ligands in quiescent A431 cells, multi-parameter and cluster analysis
- Format: cell-based
- Test conditions: DMR parameters normalized to the epinephrine response
Endpoint name: heat map classification of β2-AR agonist pharmacology based on DMR parameters

[
  {
    "Molecule": "CNCC(O)c1ccccc1 (stereo not shown) [halostachine]",
    "Experimental value": "partial agonists"
  },
  {
    "Molecule": "NCCc1ccc(O)c(O)c1 [dopamine]",
    "Experimental value": "partial agonists"
  }
]
